Test system: IL-6 levels in human whole blood stimulated with a TLR2 agonist
Experiment: IRAK4 Whole Blood Assay (lipoteichoic acid/TLR2-stimulated IL-6)
Format: cell-based
Conditions: Homo sapiens, lipoteichoic acid 10 μg/mL, IL-6 readout
pEC50: −log10 of the molar value.
Readout Name: pEC50

CCCNc1cc(-c2cnn3cc(Cl)cnc23)ncc1C(=O)NC[C@@H](F)C(C)(C)O :: 6.00
CC(C)(O)[C@H](F)CNC(=O)c1cnc(-c2cnn3cc(Cl)cnc23)cc1NC12CCC(O)(CC1)C2 :: 6.15
CC(C)(O)[C@H](F)CNC(=O)c1cnc(-c2cnn3cc(C#N)cnc23)cc1NC1CCOCC1 :: 6.40
CC(F)(F)Cn1ccc(Nc2cc(-c3cnc4cc(C#N)cnn34)ncc2C(=O)NC[C@@H](F)C(C)(C)O)n1 :: 6.02
CC(C)(O)[C@H](F)CNC(=O)c1cnc(-c2cnn3cc(Cl)cnc23)cc1NC1COC1 :: 7.00

(I) CC(C)(O)CCNC(=O)c1cnc(-c2cnn3cc(Cl)cnc23)cc1Nc1cnn(CC(F)F)c1
(II) CNC(=O)[C@H]1CC[C@H](NC(=O)c2cnc(-c3cnn4cc(Cl)cnc34)cc2NC(C)C)CC1
(III) CC(C)n1cc(Nc2cc(-c3cnc4cc(C#N)cnn34)ncc2C(=O)NCCC(C)(C)O)cn1
Ask | Task field, ranking: reported pEC50, descending order. Give your ranking as a list of the labels in the requested order.
Reply | I, III, II

(A) CC(C)Nc1cc(-c2cnn3cc(Cl)cnc23)ncc1C(=O)NCCCS(C)(=O)=O
(B) O=C(N[C@H]1CC[C@H](C(=O)NC2CC2)CC1)c1cnc(-c2cnn3cc(Cl)cnc23)cc1NC1COC1
Ask | Decide: A or B , by lowest recorded pEC50. Selection: enter the item's label.
Reply | A

(A) CC[C@H](F)CNc1cc(-c2cnn3cc(Cl)cnc23)ncc1C(=O)NC[C@@H](F)C(C)(C)O
(B) CC(=O)N[C@H]1CC[C@H](NC(=O)c2cnc(-c3cnn4cc(C#N)cnc34)cc2NC(C)C)CC1
(C) CC(C)(O)[C@H](F)CNC(=O)c1cnc(-c2cnn3cc(C#N)cnc23)cc1Nc1ccn(CC(F)F)c1
Ask | Rank by pEC50 (largest to smallest). Provide your answer as the labels ordered per the instruction.
Reply | C, A, B

(I) COC(=O)N[C@H]1CC[C@H](NC(=O)c2cnc(-c3cnc4cc(C#N)cnn34)cc2NC2(C)CC2)CC1
(II) CC(C)(O)[C@H](F)CNC(=O)c1cnc(-c2cnc3cc(C#N)cnn23)cc1NCCC(F)F
Ask | Parameter check: reported pEC50 is higher for which label, I or II ? Give the label under which the chosen entry appears.
Reply | I

Attribution: patent US10618903B2
